Assay: Thymol quantification in quail droppings (HS-SPME/GC-MS) during chronic dietary supplementation
Type: in vivo, Coturnix japonica
Settings: female, Japanese quail (Coturnix japonica), droppings, oral, 6.25 g/kg of feed; THY6, 6.25 g of thymol/kg of feed; 16 days of S; read-out: THY concentration in droppings

structureSmiles: Cc1ccc(C(C)C)c(O)c1
concentration at 16 days (ng/g): 721

###

Experiment: Thymol quantification in egg yolk (HS-SPME/GC-MS) during chronic dietary supplementation
Type: in vivo, Coturnix japonica
Settings: female, Japanese quail (Coturnix japonica), egg yolk, oral, 2 g/kg of feed; THY2, 2 g of thymol/kg of feed; 26 days of S; read-out: THY concentration in egg yolk
propertyMeasured: concentration at 26 days of supplementation (ng/g)

structureSmiles: Cc1ccc(C(C)C)c(O)c1
unitSymbol: ng/g
readoutNumber: 169

###

Assay: Thymol quantification in quail droppings (HS-SPME/GC-MS) during chronic dietary supplementation
Assay type: in vivo, Coturnix japonica
Settings: female, Japanese quail (Coturnix japonica), droppings, oral, 4 g/kg of feed; THY4, 4 g of thymol/kg of feed; 9 days of S; read-out: THY concentration in droppings

compound: Cc1ccc(C(C)C)c(O)c1 [THY, 2 isopropyl-5-methylphenol]
unitSymbol: ng/g
concentration at 9 days: 459

###

Test: Thymol quantification in egg yolk (HS-SPME/GC-MS) during chronic dietary supplementation
Type: in vivo, Coturnix japonica
Conditions: female, Japanese quail (Coturnix japonica), egg yolk, oral, 2 g/kg of feed; THY2, 2 g of thymol/kg of feed; 2 days of S; read-out: THY concentration in egg yolk
propertyMeasured: concentration at 2 days of supplementation

structureSmiles: Cc1ccc(C(C)C)c(O)c1
result: 12.5 ng/g

###

Assay: Thymol quantification in egg yolk (HS-SPME/GC-MS) during chronic dietary supplementation
Assay type: in vivo, Coturnix japonica
Conditions: female, Japanese quail (Coturnix japonica), egg yolk, oral, 2 g/kg of feed; THY2, 2 g of thymol/kg of feed; pS, 17 days of supplement withdrawal; read-out: THY concentration in egg yolk
propertyMeasured: concentration at 17 days after supplement withdrawal (ng/g)

structureSmiles: Cc1ccc(C(C)C)c(O)c1
readoutNumber: 17.9

###

Experiment: Thymol quantification in egg yolk (HS-SPME/GC-MS) during chronic dietary supplementation
Type: in vivo, Coturnix japonica
Conditions: female, Japanese quail (Coturnix japonica), egg yolk, oral, 6.25 g/kg of feed; THY6, 6.25 g of thymol/kg of feed; pS, 17 days of supplement withdrawal; read-out: THY concentration in egg yolk
propertyMeasured: concentration at 17 days after supplement withdrawal (ng/g)

structureSmiles: Cc1ccc(C(C)C)c(O)c1
readoutNumber: 69.5

###

Experiment: Thymol quantification in quail droppings (HS-SPME/GC-MS) during chronic dietary supplementation
Format: in vivo, Coturnix japonica
Conditions: female, Japanese quail (Coturnix japonica), droppings, oral, 2 g/kg of feed; THY2, 2 g of thymol/kg of feed; 2 days of S; read-out: THY concentration in droppings

molecule: Cc1ccc(C(C)C)c(O)c1 [THY, 2 isopropyl-5-methylphenol]
unitSymbol: ng/g
concentration at 2 days: 51.8

###

Assay: Thymol quantification in egg yolk (HS-SPME/GC-MS) during chronic dietary supplementation
Assay type: in vivo, Coturnix japonica
Settings: female, Japanese quail (Coturnix japonica), egg yolk, oral, 6.25 g/kg of feed; THY6, 6.25 g of thymol/kg of feed; 2 days of S; read-out: THY concentration in egg yolk
propertyMeasured: concentration at 2 days of supplementation

molecule: Cc1ccc(C(C)C)c(O)c1 [THY, 2 isopropyl-5-methylphenol]
result: 42.9 ng/g

###

Experiment: Thymol quantification in quail droppings (HS-SPME/GC-MS) during chronic dietary supplementation
Format: in vivo, Coturnix japonica
Details: female, Japanese quail (Coturnix japonica), droppings, oral, 4 g/kg of feed; THY4, 4 g of thymol/kg of feed; 26 days of S; read-out: THY concentration in droppings
propertyMeasured: concentration at 26 days

molecule: Cc1ccc(C(C)C)c(O)c1 [THY, 2 isopropyl-5-methylphenol]
propertyMeasured: concentration at 26 days
result: 542 ng/g

###

Experiment: Thymol quantification in quail droppings (HS-SPME/GC-MS) during chronic dietary supplementation
Type: in vivo, Coturnix japonica
Conditions: female, Japanese quail (Coturnix japonica), droppings, oral, 2 g/kg of feed; THY2, 2 g of thymol/kg of feed; 26 days of S; read-out: THY concentration in droppings
Description: A total of 50 eighty-five days-old female quail of homogeneous body weights (251 ± 1 g; Mean ± SE) and in their egg-laying peak were selected from an initial group of 96 female individuals. […] In this way, we assessed whether THY induced changes in variables indicative of tissue damage and if so, whether the potential damages could reverse after 3 weeks of supplement withdrawal. […]

compound: Cc1ccc(C(C)C)c(O)c1 [THY, 2 isopropyl-5-methylphenol]
concentration at 26 days [ng/g]: 342

###

Assay: Thymol quantification in quail droppings (HS-SPME/GC-MS) during chronic dietary supplementation
Format: in vivo, Coturnix japonica
Details: female, Japanese quail (Coturnix japonica), droppings, oral, 6.25 g/kg of feed; THY6, 6.25 g of thymol/kg of feed; 2 days of S; read-out: THY concentration in droppings

compound: Cc1ccc(C(C)C)c(O)c1 [THY, 2 isopropyl-5-methylphenol]
concentration at 2 days / ng/g: 85

###

Assay: Thymol quantification in quail droppings (HS-SPME/GC-MS) during chronic dietary supplementation
Assay type: in vivo, Coturnix japonica
Details: female, Japanese quail (Coturnix japonica), droppings, oral, 4 g/kg of feed; THY4, 4 g of thymol/kg of feed; 2 days of S; read-out: THY concentration in droppings

compound: Cc1ccc(C(C)C)c(O)c1 [THY, 2 isopropyl-5-methylphenol]
concentration at 2 days [ng/g]: 63.5

###

Assay: Thymol quantification in quail droppings (HS-SPME/GC-MS) during chronic dietary supplementation
Type: in vivo, Coturnix japonica
Settings: female, Japanese quail (Coturnix japonica), droppings, oral, 2 g/kg of feed; THY2, 2 g of thymol/kg of feed; 16 days of S; read-out: THY concentration in droppings

compound: Cc1ccc(C(C)C)c(O)c1 [THY, 2 isopropyl-5-methylphenol]
concentration at 16 days / ng/g: 237

###

Test: Thymol quantification in quail droppings (HS-SPME/GC-MS) during chronic dietary supplementation
Assay type: in vivo, Coturnix japonica
Conditions: female, Japanese quail (Coturnix japonica), droppings, oral, 6.25 g/kg of feed; THY6, 6.25 g of thymol/kg of feed; 26 days of S; read-out: THY concentration in droppings
propertyMeasured: concentration at 26 days (ng/g)

structureSmiles: Cc1ccc(C(C)C)c(O)c1
unitSymbol: ng/g
readoutNumber: 650

###

Test: Thymol quantification in egg yolk (HS-SPME/GC-MS) during chronic dietary supplementation
Type: in vivo, Coturnix japonica
Conditions: female, Japanese quail (Coturnix japonica), egg yolk, oral, 6.25 g/kg of feed; THY6, 6.25 g of thymol/kg of feed; 16 days of S; read-out: THY concentration in egg yolk
propertyMeasured: concentration at 16 days of supplementation (ng/g)

structureSmiles: Cc1ccc(C(C)C)c(O)c1
unitSymbol: ng/g
readoutNumber: 372

###

Assay: Thymol quantification in egg yolk (HS-SPME/GC-MS) during chronic dietary supplementation
Format: in vivo, Coturnix japonica
Settings: female, Japanese quail (Coturnix japonica), egg yolk, oral, 2 g/kg of feed; THY2, 2 g of thymol/kg of feed; 9 days of S; read-out: THY concentration in egg yolk
propertyMeasured: concentration at 9 days of supplementation (ng/g)

compound: Cc1ccc(C(C)C)c(O)c1 [THY, 2 isopropyl-5-methylphenol]
readoutNumber: 156

###

Experiment: Thymol quantification in egg yolk (HS-SPME/GC-MS) during chronic dietary supplementation
Format: in vivo, Coturnix japonica
Settings: female, Japanese quail (Coturnix japonica), egg yolk, oral, 2 g/kg of feed; THY2, 2 g of thymol/kg of feed; 16 days of S; read-out: THY concentration in egg yolk
propertyMeasured: concentration at 16 days of supplementation (ng/g)

structureSmiles: Cc1ccc(C(C)C)c(O)c1
unitSymbol: ng/g
readoutNumber: 150

###

Assay: Thymol quantification in egg yolk (HS-SPME/GC-MS) during chronic dietary supplementation
Assay type: in vivo, Coturnix japonica
Details: female, Japanese quail (Coturnix japonica), egg yolk, oral, 4 g/kg of feed; THY4, 4 g of thymol/kg of feed; 26 days of S; read-out: THY concentration in egg yolk
propertyMeasured: concentration at 26 days of supplementation

structureSmiles: Cc1ccc(C(C)C)c(O)c1
result: 282 ng/g

###

Assay: Thymol quantification in egg yolk (HS-SPME/GC-MS) during chronic dietary supplementation
Assay type: in vivo, Coturnix japonica
Settings: female, Japanese quail (Coturnix japonica), egg yolk, oral, 4 g/kg of feed; THY4, 4 g of thymol/kg of feed; 2 days of S; read-out: THY concentration in egg yolk
propertyMeasured: concentration at 2 days of supplementation (ng/g)

compound: Cc1ccc(C(C)C)c(O)c1 [THY, 2 isopropyl-5-methylphenol]
readoutNumber: 26.1
